// data source = the FLAb antibody collection (doi:10.7554/elife.23156)

B1: scFv; the commonest letter at each place (parent)
chain 1: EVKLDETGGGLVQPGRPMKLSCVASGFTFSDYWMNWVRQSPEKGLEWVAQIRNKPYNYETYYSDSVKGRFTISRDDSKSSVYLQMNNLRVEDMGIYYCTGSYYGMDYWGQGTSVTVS
chain 2: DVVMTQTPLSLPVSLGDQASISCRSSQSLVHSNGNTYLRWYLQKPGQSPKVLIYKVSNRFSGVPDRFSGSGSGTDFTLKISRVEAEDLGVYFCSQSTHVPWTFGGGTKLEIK

Variants of: B1
Protocol: Kd (Tite-Seq)
Condition Parameters: with fluorescein; format: scFv 4-4-20, heavy + light
Test Readout: Kd

In the examples that follow, each entry is paired with its recorded Kd.
Can you share its Kd? I mean this variant: chain 1 M34Y N35V ≥ 10000 nM

Can you share its Kd? I mean this variant: chain 1 T28R S30L D31S ≥ 10000 nM

Can you share its Kd? I mean this variant: chain 1 F29C V37M 20 nM

Can you share its Kd? I mean this variant: chain 1 Y32F V37C 1.42 nM

Can you share its Kd? I mean this variant: chain 1 Y102D W108T 9.17 nM

***
Can you share its Kd? I mean this variant: chain 1 D31F V37E ≥ 10000 nM

Can you share its Kd? I mean this variant: chain 1 D31A N35T V37S ≥ 10000 nM

Can you share its Kd? I mean this variant: chain 1 Y32A W33S V37G ≥ 10000 nM

Can you share its Kd? I mean this variant: chain 1 G100I Y102M ≥ 10000 nM

Can you share its Kd? I mean this variant: chain 1 S30F N35T W36P ≥ 10000 nM

Can you share its Kd? I mean this variant: chain 1 G104F W108I ≥ 10000 nM

Can you share its Kd? I mean this variant: chain 1 D31F 5.47 nM
